- protocol: Plasma pharmacokinetics after single and multiple oral doses (LC-MS/MS, non-compartmental analysis)
- Assay type: in vivo, human
- run.parameters: human, plasma, po, 750 mg, multiple oral dose of 750 mg, Day 1, n = 11; read-out: tmax, median
readout: Tmax (h)
Answers are plain numbers, in h.

What the record says about N#CC1(c2ccc(NC(=O)c3cccnc3NCc3ccncc3)cc2)CCCC1 : Tmax is 3

###

- protocol: Plasma pharmacokinetics after single and multiple oral doses (LC-MS/MS, non-compartmental analysis)
- Assay type: in vivo, human
- run.parameters: human, plasma, po, 500 mg, single oral dose 500 mg, n = 8; read-out: tmax, median
readout: Tmax (h)
Answers are plain numbers, in h.

What the record says about N#CC1(c2ccc(NC(=O)c3cccnc3NCc3ccncc3)cc2)CCCC1 [apatinib] : Tmax is 3.5

###

- protocol: Plasma pharmacokinetics after single and multiple oral doses (LC-MS/MS, non-compartmental analysis)
- Type: in vivo, human
- run.parameters: human, plasma, po, 750 mg, multiple oral dose of 750 mg, Day 6, n = 11; read-out: t1/2λz, mean (converted)
readout: half-life (h)
Answers are plain numbers, in h.

What the record says about N#CC1(c2ccc(NC(=O)c3cccnc3NCc3ccncc3)cc2)CCCC1 : half-life is 11

###

- protocol: Plasma pharmacokinetics after single and multiple oral doses (LC-MS/MS, non-compartmental analysis)
- Format: in vivo, human
- run.parameters: human, plasma, po, 750 mg, multiple oral dose of 750 mg, Day 28, n = 11; read-out: AUC0-24, geometric mean
readout: AUC(0-t) (ng·h/mL)
Answers are plain numbers, in ng·h/mL.

What the record says about N#CC1(c2ccc(NC(=O)c3cccnc3NCc3ccncc3)cc2)CCCC1 : AUC(0-t) is 19900

###

- protocol: Plasma pharmacokinetics after single and multiple oral doses (LC-MS/MS, non-compartmental analysis)
- Type: in vivo, human
- run.parameters: human, plasma, po, 750 mg, single oral dose 750 mg, n = 12; read-out: t1/2λz, mean (converted)
readout: half-life
Please report the result as a number followed by the unit.

What the record says about N#CC1(c2ccc(NC(=O)c3cccnc3NCc3ccncc3)cc2)CCCC1 : half-life is 9 h

###

- protocol: Plasma pharmacokinetics after single and multiple oral doses (LC-MS/MS, non-compartmental analysis)
- Assay type: in vivo, human
- run.parameters: human, plasma, po, 500 mg, single oral dose 500 mg, n = 8; read-out: t1/2λz, mean (converted)
readout: half-life (h)
Numbers only, in h.

What the record says about N#CC1(c2ccc(NC(=O)c3cccnc3NCc3ccncc3)cc2)CCCC1 : half-life is 8.1

###

- protocol: Plasma pharmacokinetics after single and multiple oral doses (LC-MS/MS, non-compartmental analysis)
- Type: in vivo, human
- run.parameters: human, plasma, po, 750 mg, single oral dose 750 mg, n = 12; read-out: Cmax, geometric mean
readout: Cmax (ng/mL)
Answers are plain numbers, in ng/mL.

What the record says about N#CC1(c2ccc(NC(=O)c3cccnc3NCc3ccncc3)cc2)CCCC1 : Cmax is 2380

###

- protocol: Plasma pharmacokinetics after single and multiple oral doses (LC-MS/MS, non-compartmental analysis)
- Assay type: in vivo, human
- run.parameters: human, plasma, po, 850 mg, single oral dose 850 mg, n = 8; read-out: AUC0-24, geometric mean
readout: AUC(0-t) (µg·h/mL)
Numbers only, in µg·h/mL.

What the record says about N#CC1(c2ccc(NC(=O)c3cccnc3NCc3ccncc3)cc2)CCCC1 : AUC(0-t) is 22
